- tested_target: Platelet-activating factor acetylhydrolase 2, cytoplasmic (Mus musculus) (UniProt Q8VDG7)
- Sequence (Q8VDG7 whole entry, looked up): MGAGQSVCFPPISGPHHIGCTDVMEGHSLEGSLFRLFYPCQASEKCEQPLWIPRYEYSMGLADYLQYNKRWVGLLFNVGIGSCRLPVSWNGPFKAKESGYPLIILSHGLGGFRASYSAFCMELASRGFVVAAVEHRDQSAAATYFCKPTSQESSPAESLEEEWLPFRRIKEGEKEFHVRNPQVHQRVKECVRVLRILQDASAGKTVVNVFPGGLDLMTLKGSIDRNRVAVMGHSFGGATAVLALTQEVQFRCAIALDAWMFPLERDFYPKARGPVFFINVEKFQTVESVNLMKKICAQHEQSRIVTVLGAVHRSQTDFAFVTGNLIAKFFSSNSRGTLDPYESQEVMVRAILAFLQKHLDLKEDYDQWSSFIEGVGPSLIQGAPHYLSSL
- test_protocol: LYPLA1 inhibition and serine hydrolase selectivity, late-stage follow-up, fluorescence, gel-based ABPP, mouse proteome (AID 504520);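 note: soluble proteome from BW5147 murine T cells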
- experimental_context: FP-rhodamine fluorescence, PAFAH2, at 0.75 µM, hits give high values
measured_metric: inhibition (%)

O=C(N1CCCCC1)n1ncc(C(O)(c2ccccc2)c2ccccc2)n1 :: 0
CC(C)CC(O)(CC(C)C)c1cnn(C(=O)N(c2ccccc2)c2ccccc2)n1 :: 0

[I] COC1CCN(C(=O)n2ncc(C(O)(c3ccccc3)c3ccccc3)n2)CC1
[II] O=C(N1CCc2ccccc2C1)n1ncc(C(O)(c2ccccc2)c2ccccc2)n1
[III] O=C(N(c1ccccc1)c1ccc2ccccc2c1)n1ncc(C(O)(c2ccccc2)c2ccccc2)n1
query: # rank_down: sort by inhibition, max first Use the labels to give the ranking in the order requested.
result: II, III, I
(II: 100%, III: 25%, I: 0%)
